tested on: CSNK1G2; settings: concentration: 1 μM,replicates: in singlicate; n = 1;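 further: KINOMEscan kinase panel screen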
Property label: %Inh (%)
Response body: numeric value in %, unit text excluded.

Observe how each entry below is paired with its result.
{"columns": ["Compound", "%Inh / %"],
 "data": [
  ["C[C@@H](Oc1cc(-c2cnn(C3CCNCC3)c2)cnc1N)c1c(Cl)ccc(F)c1Cl", 0],
  ["CN(C)CC(O)COc1ccc(Nc2nccc(-c3cnn4nc(N5CCOCC5)ccc34)n2)cc1 (centres unmarked) [GW767488]", 50],
  ["Cc1cc2cn[nH]c2cc1-c1cccc2c(N)c(C(N)=O)nnc12", 13],
  ["Cl.Cl.NC[C@H](CC1CCCCC1)NC(=O)c1cc(Br)c(-c2ccnc3[nH]ccc23)s1 [GSK1581427]", 26],
  ["Cc1n[nH]c2ccc(-c3cc(OC[C@@H](N)Cc4ccccc4)cnc3-c3ccoc3)cc12.O=C(O)C(F)(F)F.O=C(O)C(F)(F)F [GSK507358]", 90.6]
]}

Sample Cc1ccc2c(-c3ccncc3)c(-c3ccc(F)cc3)nn2c1.Cl [GW461484] — what was its %Inh?
27

Then this compound: O=C(NCCNc1ccnc(NCc2ccc(F)cc2)n1)c1cc2ccccc2s1 [GSK1379944]
98.8

Please do the same for "CCN(CC)CCCCNc1ncc2cc(-c3c(Cl)cccc3Cl)c(NC(=O)NC(C)(C)C)nc2n1" as well.
0

---

tested on: JAK3(JH1domain-catalytic); details: concentration: 1 μM,replicates: in singlicate; n = 1
Property label: %Inh

{"columns": ["Compound", "%Inh"],
 "data": [
  ["Cc1cc(C(=O)Nc2ccc(Oc3ccc4nc(NC(=O)C5CC5)cn4n3)cc2)nn1-c1ccccc1", "27%"]
]}

Could you share what %Inh was measured for "Cl.Cl.NC[C@H](CC1CCCCC1)NC(=O)c1cc(Br)c(-c2ccnc3[nH]ccc23)s1" , tested on JAK3(JH1domain-catalytic)?
98.1%

Same thing, different compound: "NC(=O)c1cc(-c2ccccc2)cc2c(C3CCNCC3)c[nH]c12"
16%

Item: "Cl.Oc1cc(-c2nc(-c3ccccc3)[nH]c2-c2ccncc2)ccc1Cl"
0%

Another compound to check: Cl.Cl.Nc1nc(-c2ccc3c(N)n[nH]c3c2)cc(N2CCCC(NC(=O)c3ccccc3)C2)n1 (stereo not shown)
0%

What about this compound? "CC(C)Nc1cc(-c2ccc3c(N)n[nH]c3c2)nc(N)n1"
0%

Proceed to "C[C@@H](Oc1cc(-c2cnn(C3CCNCC3)c2)cnc1N)c1c(Cl)ccc(F)c1Cl"
98.3%

---

system: JAK1(JH1domain-catalytic); settings: concentration: 1 μM,replicates: in singlicate; n = 1
Property label: %Inh (%)
Numbers only; they are read as %.

For the compound CC(C)Nc1cc(-c2ccc3c(N)n[nH]c3c2)nc(N)n1 [GSK2221681] , what %Inh is on record?
0

Also need "Cc1cc2cn[nH]c2cc1-c1cccc2c(N)c(C(N)=O)nnc12" , thanks.
4

Proceed to CN(C)CC(O)COc1ccc(Nc2nccc(-c3cnn4nc(N5CCOCC5)ccc34)n2)cc1 (centres unmarked) [GW767488]
0

What about Cc1occc1-c1nc(N)c(OC[C@@H](N)Cc2c[nH]c3ccccc23)cc1-c1cc2c(C)n[nH]c2cn1 [GSK1660450] ?
0

How about this compound: C=CC(=O)Nc1cc2c(Nc3ccc(F)c(Cl)c3)ncnc2cc1OCCCN1CCOCC1 [GW781483]
0

---

tested on: MLK2; settings: concentration: 1 μM,replicates: in singlicate; n = 1
Property label: %Inh (%)
Numeric answer only, unit % assumed.

{"columns": ["Chemical structure", "Property label", "Reported value"],
 "data": [
  ["C[C@@H]1CCN(C(=O)CC#N)C[C@@H]1N(C)c1ncnc2[nH]ccc12", "%Inh", 0],
  ["O=C(NCCCN1CCOC1=O)c1cnc(NCc2cc(Cl)ccc2Cl)nc1NC1CCCC1", "%Inh", 4]
]}

# input molecule: "COc1ccc(C[C@@H](CN)NC(=O)c2cc(Br)c(-c3ccnc4[nH]ccc34)s2)cc1.Cl.Cl" ; wanted: its %Inh
0

// same read-out, input: "C=CC(=O)Nc1cc2c(Nc3ccc(F)c(Cl)c3)ncnc2cc1OCCCN1CCOCC1"
0

Follow-up item: "C[C@H]1Oc2cc(cnc2N)-c2c(nn(C)c2C#N)CN(C)C(=O)c2ccc(F)cc21"
0

What about "CC(C)N1C(=O)Cc2cc(Nc3ncc(C(F)(F)F)c(NCc4cccc(S(C)(=O)=O)c4)n3)ccc21" ?
90.2

Request: "Cl.Cl.NC[C@H](Cc1ccc(C(F)(F)F)cc1)NC(=O)c1cc(Br)c(-c2ccnc3[nH]ccc23)s1"
0

---

test system: CLK3; details: concentration: 1 μM,replicates: in singlicate; n = 1
Threshold rule: %Inh greater than or equal to 5% is 1; below that, 0.

Some solved entries appear below for comparison.
{"columns": ["Compound", "Classification"],
 "data": [
  ["C[C@@H](Oc1cc(-c2cnn(C3CCNCC3)c2)cnc1N)c1c(Cl)ccc(F)c1Cl", 0],
  ["Cl.Cl.NC[C@H](CC1CCCCC1)NC(=O)c1cc(Br)c(-c2ccnc3[nH]ccc23)s1 [GSK1581427]", 1],
  ["Cl.Cl.NC[C@H](Cc1ccc(C(F)(F)F)cc1)NC(=O)c1cc(Br)c(-c2ccnc3[nH]ccc23)s1 [GSK1487252]", 1],
  ["Nc1nc(Nc2ccccc2)cc(-c2ccc3c(N)n[nH]c3c2)n1 [GSK2225749]", 0]
]}

Let us examine a further case.
hey, is %Inh for this one >= 5%? "O=C(NCCCN1CCOC1=O)c1cnc(NCc2cc(Cl)ccc2Cl)nc1NC1CCCC1"
0

---

tested on: INSR; settings: concentration: 1 μM,replicates: in singlicate; n = 1
%Inh: recorded values
Provide only the numeric value, understood in %.

Look over these answered cases.
{"columns": ["Molecule", "Target or test system", "%Inh (%)"],
 "data": [
  ["Cc1ccc(-n2nc(C(C)(C)C)cc2NC(=O)Nc2ccc(OCCN3CCOCC3)c3ccccc23)cc1", "INSR", 0],
  ["Cl.Cl.NC[C@H](CC1CCCCC1)NC(=O)c1cc(Br)c(-c2ccnc3[nH]ccc23)s1", "INSR", 0],
  ["CNC(=O)c1ccccc1Sc1ccc2c(/C=C/c3ccccn3)n[nH]c2c1", "INSR", 6],
  ["Cc1ccc2c(-c3ccncc3)c(-c3ccc(F)cc3)nn2c1.Cl", "INSR", 6],
  ["COc1ccc(C[C@@H](CN)NC(=O)c2cc(Br)c(-c3ccnc4[nH]ccc34)s2)cc1.Cl.Cl", "INSR", 9],
  ["CCN(CC)CCOc1ccc(Nc2ncc3cc(-c4c(Cl)cccc4Cl)c(=O)n(C)c3n2)cc1", "INSR", 63]
]}

Name the recorded %Inh for "Cc1cc2cn[nH]c2cc1-c1cccc2c(N)c(C(N)=O)nnc12" .
0

Then "CCN(CC)CCCCNc1ncc2cc(-c3c(Cl)cccc3Cl)c(NC(=O)NC(C)(C)C)nc2n1" ?
0

"O=C(NCCNc1ccnc(NCc2ccc(F)cc2)n1)c1cc2ccccc2s1" ?
2

Record: "O=C(NCCCN1CCOC1=O)c1cnc(NCc2cc(Cl)ccc2Cl)nc1NC1CCCC1"
0

Try "CCn1c(-c2nonc2N)nc2c(C#CC(C)(C)O)nc(OCCN)cc21.Cl.Cl" next.
0

Consider next the molecule "CC(C)N1C(=O)Cc2cc(Nc3ncc(C(F)(F)F)c(NCc4cccc(S(C)(=O)=O)c4)n3)ccc21" in the same way.
44

Please give the result for Cl.Cl.Nc1nc(-c2ccc3c(N)n[nH]c3c2)cc(N2CCCC(NC(=O)c3ccccc3)C2)n1 (centres unmarked) too.
27

Would you kindly repeat that for "CC(C)Nc1cc(-c2ccc3c(N)n[nH]c3c2)nc(N)n1" ?
2

Now consider "C[C@@H](Oc1cc(-c2cnn(C3CCNCC3)c2)cnc1N)c1c(Cl)ccc(F)c1Cl" and answer again.
68

Next entry: "C[C@H]1Oc2cc(cnc2N)-c2c(nn(C)c2C#N)CN(C)C(=O)c2ccc(F)cc21"
0

// same read-out, input: "Cl.Oc1cc(-c2nc(-c3ccccc3)[nH]c2-c2ccncc2)ccc1Cl"
3

---

system: PRP4; details: concentration: 1 μM,replicates: in singlicate; n = 1
compounds and their reported %Inh
Write down the numeric answer in % and omit the unit.

Consider the worked cases shown below.
{"columns": ["Compound", "Target or test system", "Reported value"],
 "data": [
  ["C[C@@H]1CCN(C(=O)CC#N)C[C@@H]1N(C)c1ncnc2[nH]ccc12", "PRP4", 0],
  ["O=C(NCCCN1CCOC1=O)c1cnc(NCc2cc(Cl)ccc2Cl)nc1NC1CCCC1", "PRP4", 1]
]}

Can you look up the measured %Inh of Nc1nc(Nc2ccccc2)cc(-c2ccc3c(N)n[nH]c3c2)n1 [GSK2225749] for me?
60

Also CCn1c(-c2nonc2N)nc2c(C#CC(C)(C)O)nc(OCCN)cc21.Cl.Cl [GSK902056] ?
8
